tested on: MDR1-MDCK cell monolayers; assay: MDCK-MDR1 permeability assay (BBB penetration potential); type: in vitro ADME; settings: dog, MDCK-MDR1, 120 min, 5 μM, pH 7.4
Quick list: MDCK-MDR1: % Recov A-B per entry.
Just the number in %, nothing appended.

These solved cases illustrate the format of a correct answer.
Oc1cc2ncccc2cc1-c1ccc(O[C@@H]2C[C@H]3CCC[C@H](N3)[C@@H]2F)nn1 (single isomer, unassigned); 95
O=c1cc(-c2ccc(-c3ccc(O[C@H]4C[C@@H]5CCC[C@@H](N5)[C@H]4F)nn3)c(O)c2)ccn1CF (single isomer, unassigned); 79

# ---- query compound ----
QUERY: I would be grateful if you could share the reported MDCK-MDR1: % Recov A-B for Cn1ccc(-c2ccc(-c3ccc(O[C@H]4C[C@@H]5CCC[C@@H](N5)[C@H]4F)nn3)c(O)c2)nc1=O (single isomer, unassigned) .
RESULT: 97

* * *

test system: mHTT protein; assay: mHTT protein assay (2B7-MW1, Mesoscale Discovery); format: cell-based, human; details: GM04724 (CAG 70/20) Huntington's disease patient lymphoblast cells, 48 hours, 2B7-MW1 MSD; read-out: HTT Potency - Protein EC50 mHTT (average)
pEC50: −log10 of the molar value.
MEASURE: pEC50

C[C@]12CCC[C@](C)(N1)[C@H](F)[C@H](Oc1ccc(-c3ccc(C#N)cc3O)nn1)C2 (single isomer, unassigned); 5.00 to 6.30
N#Cc1ccc(-c2ccc(O[C@@H]3C[C@H]4CCC[C@H](N4)[C@@H]3F)nn2)c(O)c1 (single isomer, unassigned); 5.00 to 6.30

# ---- query compound ----
QUERY: I would be grateful if you could share the reported pEC50 for Cc1cc(-c2ccc(-c3ccc(O[C@H]4C[C@@H]5CCC[C@@H](N5)[C@H]4F)nn3)c(O)c2)ccn1 (single isomer, unassigned) .
RESULT: 7.30 to 7.80

* * *

tested on: MDR1; assay: MDCK-MDR1 permeability assay (BBB penetration potential); format: in vitro ADME; conditions: dog, MDCK-MDR1, pH 7.4, MDCK-MDR1: Efflux
MEASURE: efflux ratio at 120 min, 5 μM

These solved cases illustrate the format of a correct answer.
Cn1ccc(=O)c2cc(-c3ccc(O[C@@H]4C[C@@]5(C)CCC[C@](C)(N5)[C@@H]4F)nn3)c(O)cc21 (single isomer, unassigned) [131-ENT2]; 56
Oc1cc2cnccc2cc1-c1ccc(O[C@@H]2C[C@H]3CCC[C@H](N3)[C@@H]2F)nn1 (single isomer, unassigned) [80-ENT1]; 4
COc1cc(-c2ccc(-c3ccc(O[C@@H]4C[C@@]5(C)CC[C@](C)(N5)[C@@H]4F)nn3)c(O)c2)cnn1 (single isomer, unassigned) [157-ENT1]; 6
Oc1cc(-c2ccc3cncn3c2)ccc1-c1ccc(O[C@@H]2C[C@H]3CCC[C@H](N3)[C@@H]2F)nn1 (single isomer, unassigned) [85-ENT1]; 6
Oc1cc(-c2nnco2)c(F)cc1-c1ccc(O[C@@H]2C[C@H]3CC[C@H](N3)[C@@H]2F)nn1 (single isomer, unassigned) [142-ENT2]; 6

# ---- query compound ----
QUERY: I would be grateful if you could share the reported efflux ratio at 120 min, 5 μM for Oc1cc(-c2ccnnc2)ccc1-c1ccc(O[C@H]2C[C@@H]3CCC[C@@H](N3)[C@H]2F)nn1 (single isomer, unassigned) [87-ENT2] .
RESULT: 14
